# systemUnderTest: MAPK12 (human)
pKi: −log10 of the molar value.
readoutName: pKi

Specify pKi for O=C1c2ccccc2-c2n[nH]c3cccc1c23 and stop.
< 5.20

---

readoutName: Ki (nM)
Give the number; nM is assumed, so skip it.

Provide measured Ki on LYN (human) for O=C1c2ccccc2-c2n[nH]c3cccc1c23 please.
1000

---

readoutName: pKi
Notebook: values listed as pKi are -log10 of the concentration (mol/L).

# return pKi for O=C1c2ccccc2-c2n[nH]c3cccc1c23 , test system: KDR (human) (UniProt P35968)
# Sequence (P35968 whole entry, looked up): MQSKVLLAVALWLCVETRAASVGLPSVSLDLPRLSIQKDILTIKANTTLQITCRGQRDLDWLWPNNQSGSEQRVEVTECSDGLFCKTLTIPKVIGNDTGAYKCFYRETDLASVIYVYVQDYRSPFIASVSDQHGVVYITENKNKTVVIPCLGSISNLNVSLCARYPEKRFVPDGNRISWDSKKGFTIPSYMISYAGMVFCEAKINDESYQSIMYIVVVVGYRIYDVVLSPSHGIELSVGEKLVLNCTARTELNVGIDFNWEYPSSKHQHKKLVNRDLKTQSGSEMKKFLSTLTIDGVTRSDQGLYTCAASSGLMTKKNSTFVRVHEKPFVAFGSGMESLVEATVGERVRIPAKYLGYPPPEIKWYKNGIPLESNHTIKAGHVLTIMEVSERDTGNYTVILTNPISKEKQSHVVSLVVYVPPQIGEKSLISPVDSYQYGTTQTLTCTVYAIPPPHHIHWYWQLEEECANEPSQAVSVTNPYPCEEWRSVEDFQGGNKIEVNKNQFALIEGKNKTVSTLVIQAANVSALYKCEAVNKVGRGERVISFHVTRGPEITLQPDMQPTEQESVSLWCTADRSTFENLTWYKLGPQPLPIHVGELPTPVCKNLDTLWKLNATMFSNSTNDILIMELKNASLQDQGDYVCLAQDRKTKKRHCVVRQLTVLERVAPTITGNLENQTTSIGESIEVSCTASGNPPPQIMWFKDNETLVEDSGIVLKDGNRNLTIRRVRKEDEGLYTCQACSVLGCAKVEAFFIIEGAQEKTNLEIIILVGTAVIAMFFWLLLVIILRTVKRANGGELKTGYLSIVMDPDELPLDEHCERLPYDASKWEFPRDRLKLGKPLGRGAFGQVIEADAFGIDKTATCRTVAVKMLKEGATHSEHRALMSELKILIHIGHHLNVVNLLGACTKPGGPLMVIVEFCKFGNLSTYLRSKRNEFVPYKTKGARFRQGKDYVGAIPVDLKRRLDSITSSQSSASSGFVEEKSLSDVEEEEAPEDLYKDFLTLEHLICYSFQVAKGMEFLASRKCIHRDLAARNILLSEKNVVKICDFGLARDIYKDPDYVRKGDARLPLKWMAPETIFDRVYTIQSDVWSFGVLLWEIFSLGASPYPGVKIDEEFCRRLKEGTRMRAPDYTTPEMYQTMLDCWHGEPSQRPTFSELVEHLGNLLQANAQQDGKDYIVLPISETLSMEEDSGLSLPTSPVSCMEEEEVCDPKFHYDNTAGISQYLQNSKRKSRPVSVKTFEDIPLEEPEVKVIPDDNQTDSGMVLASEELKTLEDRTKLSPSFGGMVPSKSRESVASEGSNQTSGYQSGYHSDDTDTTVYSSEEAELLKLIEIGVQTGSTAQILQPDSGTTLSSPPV
6.20

---

readoutName: pKi
// field semantics: pKi = negative decimal log of concentration (mol/L)

Name the value of pKi reported for O=C1c2ccccc2-c2n[nH]c3cccc1c23 when tested on IRAK4 (human).
6.80

---

pKi: −log10 of the molar value.
Task for the reader: assign each of the following compounds its reported pKi.

Identify measured pKi obtained with UniProt:O00141 for Cc1cc(C)cc(NC(=O)Nc2ccc3c(c2)CCc2sc4ncnc(N)c4c2-3)c1 .
Sequence (O00141 whole entry, looked up): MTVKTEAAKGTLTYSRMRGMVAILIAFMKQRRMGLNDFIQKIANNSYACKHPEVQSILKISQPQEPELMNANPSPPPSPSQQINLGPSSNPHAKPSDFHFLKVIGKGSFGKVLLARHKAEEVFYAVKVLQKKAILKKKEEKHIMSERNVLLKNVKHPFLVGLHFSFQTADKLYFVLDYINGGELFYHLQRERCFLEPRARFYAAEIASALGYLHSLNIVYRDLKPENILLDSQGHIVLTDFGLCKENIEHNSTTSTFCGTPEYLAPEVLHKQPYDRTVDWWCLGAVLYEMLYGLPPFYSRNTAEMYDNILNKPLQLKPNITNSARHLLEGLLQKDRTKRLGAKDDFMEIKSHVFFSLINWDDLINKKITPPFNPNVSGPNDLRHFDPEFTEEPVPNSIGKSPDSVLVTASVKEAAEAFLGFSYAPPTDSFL
< 5.00

Look up and report pKi, with UniProt:O00141 as system, for Cc1cccc(NC(=O)Nc2ccc(-c3cncc4c3c(N)nn4C)cc2)c1
< 5.10

Write pKi of Fc1ccc(-c2nc3occn3c2-c2ccnc(NC3CCNCC3)n2)cc1 ; system used: UniProt:O00141
< 5.00

Give measured pKi for CCOc1nc(C(=O)NCc2ccc(S(C)(=O)=O)cc2)cc(N)c1C#N (UniProt:O00141).
< 5.20

Consider the compound Cc1c(C=O)c(O)n2c(nc3ccccc32)c1C#N tested on UniProt:O00141; state its pKi.
< 5.00

Provide pKi, tested on UniProt:O00141, for NCCCn1cc(-c2cc(-c3cc4ccccc4s3)c3[nH]ncc3c2)c2nc(N)ncc21 .
6.30

Report value: pKi, system: UniProt:O00141, compound: COCC(C)(C)CNc1nccc(-c2c(-c3ccc(F)cc3)nc3c(C)nccn23)n1
< 5.00

Quote UniProt:O00141 pKi for entry Brc1ccc2[nH]nc(-c3ccccc3)c2c1 .
< 5.00

Write down measured pKi (UniProt:O00141) for this compound. COc1ccc(-c2ccc(NC(=O)Nc3cccc(Br)c3)cc2)c2c(N)noc12
< 5.00

# assay system UniProt:O00141: give pKi of COc1cccc([C@@H](C)NC(=O)c2ccc(-c3ccncn3)cc2)c1
6.20

---

# systemUnderTest: UniProt:P22607
# Sequence (P22607 whole entry, looked up): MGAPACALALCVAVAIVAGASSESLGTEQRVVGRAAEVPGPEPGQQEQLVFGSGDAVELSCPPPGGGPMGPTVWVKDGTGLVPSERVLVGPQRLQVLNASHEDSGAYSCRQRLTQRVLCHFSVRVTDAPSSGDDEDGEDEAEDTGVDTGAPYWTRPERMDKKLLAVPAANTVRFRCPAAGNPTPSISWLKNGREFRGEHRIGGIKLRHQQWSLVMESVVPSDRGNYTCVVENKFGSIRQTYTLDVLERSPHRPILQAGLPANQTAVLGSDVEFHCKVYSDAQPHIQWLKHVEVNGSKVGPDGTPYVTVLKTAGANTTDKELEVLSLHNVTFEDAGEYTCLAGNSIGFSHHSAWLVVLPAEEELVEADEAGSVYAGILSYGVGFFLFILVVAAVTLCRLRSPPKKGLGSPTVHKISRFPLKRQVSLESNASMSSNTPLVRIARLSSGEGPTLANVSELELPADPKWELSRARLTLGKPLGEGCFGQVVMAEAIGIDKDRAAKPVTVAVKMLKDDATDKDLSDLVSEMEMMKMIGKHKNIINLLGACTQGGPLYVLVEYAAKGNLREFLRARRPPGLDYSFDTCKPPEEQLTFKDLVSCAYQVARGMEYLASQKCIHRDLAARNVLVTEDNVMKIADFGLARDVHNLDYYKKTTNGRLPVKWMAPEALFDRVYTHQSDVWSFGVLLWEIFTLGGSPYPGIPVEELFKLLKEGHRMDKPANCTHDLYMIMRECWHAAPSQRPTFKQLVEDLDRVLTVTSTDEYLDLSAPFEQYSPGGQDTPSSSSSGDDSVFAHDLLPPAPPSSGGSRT
readoutName: Ki
Please report the result as a number followed by the unit.

Quote Ki reported for O=C1c2ccccc2-c2n[nH]c3cccc1c23 please.
158 nM

---

# systemUnderTest: BLK (human)
# experiment: HTRF
readoutName: pKi
pKi is a log-scale quantity: -log10 of the concentration expressed in molar.

Tell me its pKi on BLK (human): O=C1c2ccccc2-c2n[nH]c3cccc1c23
6.70

---

pKi: −log10 of the molar value.
readoutName: pKi

State, for SGK1 (human), measured pKi of the compound listed here: Nc1ncc(/C=C/C(=O)NCCCn2ccnc2)c2scc(-c3ccc(Br)cc3)c12
< 5.00

Please report the measured pKi for O=C1NCCc2[nH]c(-c3ccnc(-c4ccccc4F)c3)cc21 tested on SGK1 (human).
< 5.00

State pKi on SGK1 (human). Entry: Cn1cncc1C(OCc1c(-c2ccc(OC(F)(F)F)cc2)cc(C#N)c(=O)n1C)c1ccc(C#N)cc1 (stereo not given)
< 5.00

Lab note: record pKi of Cc1cccc(NC(=O)Nc2ccc(-c3csc4ncnc(N)c34)cc2)c1 tested on SGK1 (human).
< 5.00

Recall the reported pKi of Cc1nc2ccc(NS(=O)(=O)c3ccc(N)cc3)cc2nc1C on SGK1 (human) and write it down.
< 5.00

Print SGK1 (human) pKi for Cc1[nH]c(/C=C2\C(=O)Nc3ccccc32)c(C)c1CCC(=O)O .
5.30

Please report the measured pKi for Cc1cc(Nc2ncc(F)c(N[C@H]3[C@@H](C(N)=O)[C@@H]4C=C[C@H]3C4)n2)ccc1N1CCN(C)CC1 tested on SGK1 (human).
5.80

Find pKi for O=c1[nH]c2sccc2c2nc(-c3ccncc3)nn12 on SGK1 (human) and write it down.
< 5.00

Give pKi for this entry on SGK1 (human): O=C(Nc1cccc(C(F)(F)F)n1)Nc1ccnc2c(Cl)c(Cl)ccc12
< 5.00

# return pKi for NC(=O)c1cccc2[nH]c(-c3ccc(NC(=O)c4cccc(S(=O)(=O)N5CCOCC5)c4)cc3)nc12 , test system: SGK1 (human)
< 5.00
